- Tested on: HMEC-1 human vascular endothelial cells
measured.metric: Maximum Non-Cytotoxic Concentration HMEC-1 (%)

| compound | units.of.measure | qualifying.sign | measured.number |
| --- | --- | --- | --- |
| O=C([O-])CSCCC(F)(F)C(F)(F)C(F)(F)C(F)(F)C(F)(F)C(F)(F)C(F)(F)C(F)(F)F.[K+] [2aK] | % | = | 1 |
| O=C(O)CCC(=O)OCCC(F)(F)C(F)(F)C(F)(F)C(F)(F)C(F)(F)C(F)(F)C(F)(F)C(F)(F)F [2j2j3h] | % | = | 1 |
| O=C([O-])CSCCC(F)(F)C(F)(F)C(F)(F)C(F)(F)C(F)(F)C(F)(F)C(F)(F)C(F)(F)F.[Na+] [2cNa] | % | = | 0.2 |
| O=C(O)CCCC(=O)OCCC(F)(F)C(F)(F)C(F)(F)C(F)(F)C(F)(F)C(F)(F)C(F)(F)C(F)(F)F [2l3k] | % | > | 1.00 |
| O=C(O)CC(F)(F)C(F)(F)C(F)(F)C(F)(F)C(F)(F)C(F)(F)F [2p3c] | % | = | 0.1 |
| O=C(O)CCC(=O)OCCC(F)(F)C(F)(F)C(F)(F)C(F)(F)C(F)(F)C(F)(F)F [2i2i3h] | % | = | 0.1 |
| O=C(O)CCCC(=O)OCCC(F)(F)C(F)(F)C(F)(F)C(F)(F)C(F)(F)C(F)(F)C(F)(F)C(F)(F)F [2l3e] | % | > | 2.00 |
